Entry source: patent US20100267697A1

target: Cav2.2 (Homo sapiens); construct: expressed in transfected cells; host or cells: HEK-293T/17 (transient, FuGENE 6); assay: HEK assay (whole-cell patch clamp, transiently transfected HEK-293T/17 cells, pulses P1 and P5); assay type: cell-based; conditions: fifth pulse (P5) of 5 Hz train, holding potential −100 mV, read-out: HEK Cav2.2 P5 IC50
Sequence (Q00975 whole entry): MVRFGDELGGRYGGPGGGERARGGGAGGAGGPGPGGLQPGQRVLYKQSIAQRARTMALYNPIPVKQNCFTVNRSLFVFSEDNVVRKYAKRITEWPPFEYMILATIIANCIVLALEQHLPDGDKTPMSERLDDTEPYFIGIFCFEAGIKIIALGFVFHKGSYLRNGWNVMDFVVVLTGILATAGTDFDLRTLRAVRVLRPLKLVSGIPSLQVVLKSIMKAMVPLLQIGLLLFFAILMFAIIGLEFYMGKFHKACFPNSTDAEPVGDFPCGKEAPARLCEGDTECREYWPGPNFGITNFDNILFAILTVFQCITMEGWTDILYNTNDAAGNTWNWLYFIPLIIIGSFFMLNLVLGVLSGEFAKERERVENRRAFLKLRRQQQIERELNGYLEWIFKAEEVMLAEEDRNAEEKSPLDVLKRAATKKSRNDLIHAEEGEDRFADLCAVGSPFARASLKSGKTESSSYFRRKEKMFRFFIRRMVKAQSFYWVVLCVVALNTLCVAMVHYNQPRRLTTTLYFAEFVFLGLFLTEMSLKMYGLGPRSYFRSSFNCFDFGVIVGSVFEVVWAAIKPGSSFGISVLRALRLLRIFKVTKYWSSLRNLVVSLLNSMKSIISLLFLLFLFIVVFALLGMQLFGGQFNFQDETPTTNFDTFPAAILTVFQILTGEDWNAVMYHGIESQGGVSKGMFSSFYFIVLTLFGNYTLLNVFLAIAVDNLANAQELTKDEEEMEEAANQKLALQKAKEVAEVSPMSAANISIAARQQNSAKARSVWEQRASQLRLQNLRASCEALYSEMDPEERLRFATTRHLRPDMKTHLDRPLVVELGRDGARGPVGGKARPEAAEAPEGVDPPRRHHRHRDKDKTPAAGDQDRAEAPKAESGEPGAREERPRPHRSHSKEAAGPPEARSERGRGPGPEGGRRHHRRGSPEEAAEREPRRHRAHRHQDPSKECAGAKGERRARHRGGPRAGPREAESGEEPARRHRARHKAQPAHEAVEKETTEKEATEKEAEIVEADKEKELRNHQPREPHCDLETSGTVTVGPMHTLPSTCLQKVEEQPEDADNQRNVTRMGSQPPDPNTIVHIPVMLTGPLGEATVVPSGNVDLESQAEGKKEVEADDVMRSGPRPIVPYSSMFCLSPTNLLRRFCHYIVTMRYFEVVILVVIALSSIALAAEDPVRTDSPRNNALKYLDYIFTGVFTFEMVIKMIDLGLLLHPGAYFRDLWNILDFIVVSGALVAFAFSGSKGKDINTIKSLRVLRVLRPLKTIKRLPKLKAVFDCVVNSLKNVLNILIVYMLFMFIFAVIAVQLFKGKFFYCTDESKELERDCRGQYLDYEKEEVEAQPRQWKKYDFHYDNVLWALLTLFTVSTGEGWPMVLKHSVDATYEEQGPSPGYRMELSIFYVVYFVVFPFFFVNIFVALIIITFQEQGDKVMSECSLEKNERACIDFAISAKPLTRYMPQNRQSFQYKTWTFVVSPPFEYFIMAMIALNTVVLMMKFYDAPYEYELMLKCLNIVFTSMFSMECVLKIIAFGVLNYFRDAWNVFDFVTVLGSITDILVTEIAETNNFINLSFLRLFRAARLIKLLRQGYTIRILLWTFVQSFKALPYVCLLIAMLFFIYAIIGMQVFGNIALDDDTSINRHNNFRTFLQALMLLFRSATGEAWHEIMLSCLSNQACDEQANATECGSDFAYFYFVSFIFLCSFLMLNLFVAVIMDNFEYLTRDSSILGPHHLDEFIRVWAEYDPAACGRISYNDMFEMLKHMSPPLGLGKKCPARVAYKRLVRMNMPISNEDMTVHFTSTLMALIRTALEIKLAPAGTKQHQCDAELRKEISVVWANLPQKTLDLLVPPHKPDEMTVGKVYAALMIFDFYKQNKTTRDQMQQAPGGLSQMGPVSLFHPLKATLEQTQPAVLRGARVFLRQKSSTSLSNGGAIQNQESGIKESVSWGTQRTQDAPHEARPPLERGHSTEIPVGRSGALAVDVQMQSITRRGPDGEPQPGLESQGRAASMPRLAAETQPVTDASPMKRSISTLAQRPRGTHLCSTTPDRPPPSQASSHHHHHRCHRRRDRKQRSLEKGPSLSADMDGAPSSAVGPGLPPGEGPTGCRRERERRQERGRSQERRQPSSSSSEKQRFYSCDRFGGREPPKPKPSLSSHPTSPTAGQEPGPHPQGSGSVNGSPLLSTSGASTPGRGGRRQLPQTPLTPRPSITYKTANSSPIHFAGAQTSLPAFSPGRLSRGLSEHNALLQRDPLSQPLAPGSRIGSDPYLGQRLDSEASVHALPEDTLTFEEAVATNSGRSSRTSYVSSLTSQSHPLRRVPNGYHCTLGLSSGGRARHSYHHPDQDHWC
Sequence (P54284 whole entry partner): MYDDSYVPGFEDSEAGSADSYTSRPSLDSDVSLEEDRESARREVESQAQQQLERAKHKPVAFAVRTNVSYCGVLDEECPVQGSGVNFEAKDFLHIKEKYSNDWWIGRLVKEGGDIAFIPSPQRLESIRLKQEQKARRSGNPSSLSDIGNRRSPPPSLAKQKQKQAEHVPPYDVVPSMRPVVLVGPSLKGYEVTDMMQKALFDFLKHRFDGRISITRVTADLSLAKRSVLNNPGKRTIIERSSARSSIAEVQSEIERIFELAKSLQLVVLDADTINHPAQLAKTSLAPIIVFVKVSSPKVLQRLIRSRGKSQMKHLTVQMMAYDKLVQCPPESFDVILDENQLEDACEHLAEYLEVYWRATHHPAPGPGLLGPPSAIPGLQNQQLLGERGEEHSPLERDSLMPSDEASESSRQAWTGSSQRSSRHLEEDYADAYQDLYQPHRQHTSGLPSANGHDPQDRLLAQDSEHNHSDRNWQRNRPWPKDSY
Sequence (P54289 25-946 partner limits assumed): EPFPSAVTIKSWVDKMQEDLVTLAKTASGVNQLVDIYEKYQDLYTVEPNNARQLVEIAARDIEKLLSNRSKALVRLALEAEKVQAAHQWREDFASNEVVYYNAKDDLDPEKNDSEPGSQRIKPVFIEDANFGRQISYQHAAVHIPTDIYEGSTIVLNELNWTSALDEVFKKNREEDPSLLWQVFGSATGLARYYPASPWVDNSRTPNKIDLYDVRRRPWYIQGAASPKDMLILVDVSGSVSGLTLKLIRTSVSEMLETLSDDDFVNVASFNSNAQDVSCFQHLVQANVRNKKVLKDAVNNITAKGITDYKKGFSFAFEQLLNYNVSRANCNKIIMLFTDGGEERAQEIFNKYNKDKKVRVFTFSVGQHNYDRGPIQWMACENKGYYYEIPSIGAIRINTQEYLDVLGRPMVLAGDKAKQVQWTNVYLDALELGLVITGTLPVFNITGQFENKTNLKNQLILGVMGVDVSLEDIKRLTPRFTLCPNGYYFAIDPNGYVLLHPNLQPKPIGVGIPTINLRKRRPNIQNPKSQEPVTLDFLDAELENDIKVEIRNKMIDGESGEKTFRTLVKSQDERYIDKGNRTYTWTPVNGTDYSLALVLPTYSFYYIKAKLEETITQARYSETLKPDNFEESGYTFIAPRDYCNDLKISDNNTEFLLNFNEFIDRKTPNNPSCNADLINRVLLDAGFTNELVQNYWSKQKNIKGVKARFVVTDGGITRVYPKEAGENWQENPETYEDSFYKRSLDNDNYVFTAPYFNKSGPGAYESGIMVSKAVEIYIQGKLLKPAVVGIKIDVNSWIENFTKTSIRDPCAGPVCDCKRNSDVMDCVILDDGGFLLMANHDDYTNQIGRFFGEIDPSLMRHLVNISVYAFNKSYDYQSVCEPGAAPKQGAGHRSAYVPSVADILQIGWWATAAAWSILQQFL
Sequence (P54289 947-1103 partner limits assumed): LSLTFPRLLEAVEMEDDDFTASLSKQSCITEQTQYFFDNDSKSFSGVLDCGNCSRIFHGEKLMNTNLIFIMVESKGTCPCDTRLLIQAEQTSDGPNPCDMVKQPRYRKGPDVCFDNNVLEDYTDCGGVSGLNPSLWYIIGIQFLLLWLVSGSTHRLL
Kindly state IC50 for each of the entries shown.
Numbers only, in nM.

Example compounds with recorded IC50:
{"columns": ["Compound", "System tested", "Outcome measure", "Val"],
 "data": [
  ["CCN(CC)c1ccc(CN(C(=O)C(C)(C)C)c2ccccc2C(C)C)cn1", "Cav2.2 (Homo sapiens)", "IC50", 700],
  ["CN(c1ccc(F)cc1)c1nc(CN(C(=O)C2CCCN2C)c2ccc(F)cc2)cs1 (stereo not shown)", "Cav2.2 (Homo sapiens)", "IC50", 2100],
  ["CCN(CC)C1CCN(c2ccc(CN(C(=O)C(C)(C)C)c3ccc(F)cc3)cn2)C1 (stereo not shown)", "Cav2.2 (Homo sapiens)", "IC50", 6300]
]}

Kindly consider the entry below.
Fill in IC50 for record `CCC(C)(C)C(=O)N(Cc1ccc(N(C)CCc2ccccn2)nc1)c1ccc(F)cc1`
600
